Study system: CDK2 CCNA2 (human) (UniProt P20248+P24941)
Assay remarks: radiometric filter-binding kinase assay
Condition parameters: compound 1.0 µM
Endpoint label: residual activity (%)
Numeric only. Scale: %

Record CNC(=O)C1[C@H]2O[C@@](C)([C@@H]1N)n1c3ccccc3c3c4c(c5c6ccccc6n2c5c31)C(=O)NC4 (stereo partly specified) / CDK2 CCNA2 (human) (UniProt P20248+P24941), residual activity recorded as 8

Record O=C(O)c1cc(N=Nc2ccc(S(=O)(=O)Nc3ccccn3)cc2)ccc1O / CDK2 CCNA2 (human) (UniProt P20248+P24941), residual activity recorded as 93

Record CCn1c(-c2nonc2N)nc2cncc(CNC3CCNCC3)c21 / CDK2 CCNA2 (human) (UniProt P20248+P24941), residual activity recorded as 81

Record NC(=O)c1ccc(-c2ccc(Oc3cncc4sc(-c5nn[nH]n5)cc34)cc2)cc1 / CDK2 CCNA2 (human) (UniProt P20248+P24941), residual activity recorded as 91

Record COc1ccc2c(c1)c1c3c(c4c5ccccc5n(C)c4c1n2CC(O)CN(C)C)C(=O)NC3=O (stereo unspecified) / CDK2 CCNA2 (human) (UniProt P20248+P24941), residual activity recorded as 90

Record CN1C(=O)[C@@H](Cc2c[nH]c3ccccc23)NC1=S / CDK2 CCNA2 (human) (UniProt P20248+P24941), residual activity recorded as 77

Consider now this further compound.
Record Nc1cccc2c1CN(C1CCC(=O)NC1=O)C2=O (stereo unspecified) / CDK2 CCNA2 (human) (UniProt P20248+P24941), residual activity recorded as 96
